- tgt: Metallo-beta-lactamase type 2 (Bacteroides fragilis)
- Sequence (P25910 whole entry): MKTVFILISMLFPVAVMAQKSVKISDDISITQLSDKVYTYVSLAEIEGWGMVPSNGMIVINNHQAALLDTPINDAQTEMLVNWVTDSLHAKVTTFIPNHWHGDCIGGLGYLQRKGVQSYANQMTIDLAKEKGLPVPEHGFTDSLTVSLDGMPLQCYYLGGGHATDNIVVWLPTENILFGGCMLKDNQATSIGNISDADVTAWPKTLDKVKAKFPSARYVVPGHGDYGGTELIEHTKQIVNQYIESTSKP
- method notes: In vitro inhibitory concentration against CCRA enzyme
property measured: IC50

Prompt line: Query (compound): CC1(C)[C@H](C(=O)O)N2C(=O)[C@@H](Cc3cn(CC4CCCN4)nn3)[C@H]2S1(=O)=O (some centres undefined) ; field requested: IC50
Response line: 22 µM

Prompt line: Now consider `CC1(C)[C@H](C(=O)O)N2C(=O)[C@@H](Cc3cn(-c4ccc(F)cc4)nn3)[C@H]2S1(=O)=O` .
Response line: 4.1 µM

Prompt line: Now consider `CC1(C)[C@H](C(=O)O)N2C(=O)[C@@H](Cc3cn(-c4ccccc4)nn3)[C@H]2S1(=O)=O` .
Response line: > 100 µM

Prompt line: Now consider CC(=O)/C=C/CC1C(=O)N2[C@@H](C(=O)O)C(C)(C)S(=O)(=O)[C@@H]12 (some centres undefined) .
Response line: 3 µM
